# Test system: SARS-CoV-2
# methodDescription: Antiviral activity against SARS-CoV-2 harboring recombinant live-attenuated delta3678 mGFP infected in human A549-ACE2 cells measured after 48 hrs by RT-PCR analysis
# Type: functional, organism-based
# conditionNotes: Severe acute respiratory syndrome coronavirus 2, A549-ACE2, 48 h
measureName: EC50 (µM)
Please state the figure in µM; there is no need to write the unit.

-- ask Specify reported EC50 for the compound shown: C[C@@H](OC(C)(C)C)[C@H](NC(=O)OCc1cccc(OCCCCCCOc2cccc3c2C(=O)N(C2CCC(=O)NC2=O)C3=O)c1)C(=O)N[C@@H](CC1CCCCC1)C(=O)N[C@H](C=O)C[C@@H]1CCNC1=O (stereo partly specified)
-- reply 2.2
